Experiment: self-splicing fitness, log relative to wild type (ln ratio); higher = more splicing; Tetrahymena group I intron in knt gene, E. coli kanamycin selection, DiMSum; sequences stand for … in CUCUCU…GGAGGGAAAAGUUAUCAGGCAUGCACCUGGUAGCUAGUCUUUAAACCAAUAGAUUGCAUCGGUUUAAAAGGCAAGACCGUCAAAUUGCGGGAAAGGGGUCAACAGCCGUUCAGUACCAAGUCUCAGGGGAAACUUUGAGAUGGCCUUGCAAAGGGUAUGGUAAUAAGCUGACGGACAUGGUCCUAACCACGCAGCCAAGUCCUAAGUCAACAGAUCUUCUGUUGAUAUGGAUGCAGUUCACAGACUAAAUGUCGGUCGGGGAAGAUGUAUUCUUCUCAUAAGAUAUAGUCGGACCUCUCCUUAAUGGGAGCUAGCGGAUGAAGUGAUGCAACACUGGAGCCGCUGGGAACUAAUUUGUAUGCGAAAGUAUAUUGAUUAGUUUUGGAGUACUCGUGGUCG;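 further: selection with 25 µg/mL kanamycin versus none on LB agar overnight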
Settings: 37 °C
Param threshold (-0.9) applies to self-splicing fitness (ln); output yes (1) when value >= threshold, no (0) when value < threshold.

Record excerpt, results attached:
[[record]]
sequence_string = "UCCUAGCAAUAUUACGUAGG"
assigned_label = "no (0)"

[[record]]
sequence_string = "ACUGAGCAAUAUUACGGUCA"
assigned_label = "no (0)"

[[record]]
sequence_string = "GAAUAGCAAUAUUACGCGCG"
assigned_label = "yes (1)"

[[record]]
sequence_string = "AGACAGCAAUAUUACGCUAU"
assigned_label = "no (0)"

[[record]]
sequence_string = "GCCGAGCAAUAUUACGAUUC"
assigned_label = "yes (1)"


Now look at this one.
Task: Hi team, for `UGGUAGCAAUAUUACGCUGG` , is the recorded self-splicing fitness (ln) at or above -0.9?
Output: no (0)

====

Assay: self-splicing fitness, log relative to wild type (ln ratio); higher = more splicing; Tetrahymena group I intron in knt gene, E. coli kanamycin selection, DiMSum; sequences stand for … in CUCUCU…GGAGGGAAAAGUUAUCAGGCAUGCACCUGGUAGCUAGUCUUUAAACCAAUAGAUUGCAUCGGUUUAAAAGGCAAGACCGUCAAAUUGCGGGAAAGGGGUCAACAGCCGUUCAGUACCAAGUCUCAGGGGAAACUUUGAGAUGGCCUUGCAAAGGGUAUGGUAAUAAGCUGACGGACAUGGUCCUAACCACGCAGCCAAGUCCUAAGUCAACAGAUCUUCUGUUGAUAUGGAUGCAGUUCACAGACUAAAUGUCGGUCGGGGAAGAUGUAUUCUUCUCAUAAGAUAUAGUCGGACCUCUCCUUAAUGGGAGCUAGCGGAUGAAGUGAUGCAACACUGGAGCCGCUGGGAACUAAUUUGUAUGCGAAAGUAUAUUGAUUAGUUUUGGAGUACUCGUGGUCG
Details: 37 °C
result_type: self-splicing fitness (ln)
Numbers only.

# per-item lookup of self-splicing fitness (ln); items listed below
1. AUAGAGCAAUAUUACGUUCU
2. GCAGAGCAAUAUUACGGUUC

Output:
1: 0.267; 2: -1.58

Field: self-splicing fitness (ln). Fill in for each record below.
1. CUAAAGCAAUAUUACGGAGU
2. CUCUAGCAAUAUUACGCGAG
3. GAUCAGCAAUAUUACGGGAA
4. UGUUAGCAAUAUUACGUGAU
5. CGGAAGCAAUAUUACGAACA
6. UCGCAGCAAUAUUACGCGAG
7. GAGUAGCAAUAUUACGUACC
8. UAACAGCAAUAUUACGAAUC

Output:
1. -3.19
2. -3.28
3. -1.04
4. -1.96
5. -0.826
6. -2.56
7. -0.923
8. -2.66

I need self-splicing fitness (ln) for every entry listed below, if you could help.
1. AGAGAGCAAUAUUACGGCGU
2. UACCAGCAAUAUUACGCUAG
3. ACCGAGCAAUAUUACGUCUG
4. ACAUAGCAAUAUUACGUUGA
5. GCGAAGCAAUAUUACGACCU
6. CUUUAGCAAUAUUACGGCUC
7. UGGCAGCAAUAUUACGUGCU
8. AAGUAGCAAUAUUACGCGAA

Output:
[-2.7, -1.03, -2.28, -1.66, -0.573, -2.16, -1.79, -0.182]

All values here come from the supplement of paper PMC7877785.
